MEASUREMENT PROTOCOL: Determination of log P values by HPLC (reversed-phase C18)
Assay type: physicochemical
EXPERIMENTAL CONTEXT: HPLC, reversed-phase C18, 55° C.; final compounds table
READOUT: log P neutral

a. Cc1ccccc1C(=O)Nc1ncn(-c2c(F)cccc2F)n1 [Compound I-1-14]
b. O=C(Nc1ncn(-c2cccc(Cl)c2Cl)n1)c1ccccc1C(F)(F)F [Compound I-1-51]
Exam item: Which of the two items, a and b , has the greater recorded log P neutral? Write the label of whichever entry you select.
Marked response: b

P. O=C(Nc1ncn(-c2ccccc2C(F)(F)F)n1)c1ccccc1C(F)(F)F [Compound I-1-8]
Q. O=C(Nc1ncn(-c2c(F)cccc2F)n1)c1ccccc1[N+](=O)[O-] [Compound I-1-22]
Exam item: Which of the two items, P and Q , has the greater recorded log P neutral? Write the label of whichever entry you select.
Marked response: P

###

MEASUREMENT PROTOCOL: Determination of log P values by HPLC (reversed-phase C18)
Type: physicochemical
EXPERIMENTAL CONTEXT: N-[1-aryl-1H-1,2,4-triazol-3-yl]benzamides, formula (1-9)
READOUT: logP (neutral)

STRUCTURE STRING | logP (neutral)
COc1cccc(C)c1-n1cnc(NC(=O)c2ccccc2)n1 | 1.76
CCc1cccc(Cl)c1-n1cnc(NC(=O)c2ccccc2)n1 | 2.2
O=C(Nc1ncn(-c2ccccc2OC(F)(F)F)n1)c1ccccc1 | 2.15
O=C(Nc1ncn(-c2ccccc2C(F)(F)F)n1)c1ccccc1 | 1.91
O=C(Nc1ncn(-c2c(Br)cc(F)cc2Br)n1)c1ccccc1 | 2.14
O=C(Nc1ncn(-c2c(F)c(F)c(F)c(F)c2F)n1)c1ccccc1 | 2.11
O=C(Nc1ncn(-c2ccccc2F)n1)c1ccccc1 | 1.69
O=C(Nc1ncn(-c2c(Br)cccc2Br)n1)c1ccccc1 | 2.00
Cc1cccc(Cl)c1-n1cnc(NC(=O)c2ccccc2)n1 | 1.92

###

nematicidal efficacy (formation of galls) overview
Tested on: Meloidogyne incognita
MEASUREMENT PROTOCOL: Meloidogyne incognita test (MELGIN)
Assay type: in vivo
EXPERIMENTAL CONTEXT: 20 ppm; lettuce; after 14 days
Lab book: enter the figure in %, no units written.

Consider the reported nematicidal efficacy (formation of galls) for these compounds:
STRUCTURE STRING | OBSERVED MEASUREMENT
O=C(Nc1ncn(-c2ccccc2Cl)n1)c1ccccc1Br | 90
O=C(Nc1ncn(-c2c(F)cccc2Br)n1)c1ccccc1Cl | 100
O=C(Nc1ncn(-c2c(F)cccc2I)n1)c1ccccc1I | 100
Cc1ccccc1C(=O)Nc1ncn(-c2c(F)cccc2F)n1 | 100
CCc1ccccc1C(=O)Nc1ncn(-c2c(F)cccc2F)n1 | 100
O=C(Nc1ncn(-c2ccccc2C(F)(F)F)n1)c1ccccc1C(F)(F)F | 100
O=C(Nc1ncn(-c2ccccc2Br)n1)c1ccccc1C(F)(F)F | 90
O=C(Nc1ncn(-c2c(Br)cccc2Br)n1)c1ccccc1C(F)(F)F | 100

Here is the next item to consider.
Exam item: I would be grateful if you could share the reported nematicidal efficacy (formation of galls) for `O=C(Nc1ncn(-c2ccccc2I)n1)c1ccccc1C(F)(F)F` .
Marked response: 90

###

MEASUREMENT PROTOCOL: Determination of log P values by HPLC (reversed-phase C18)
Type: physicochemical
EXPERIMENTAL CONTEXT: reversed-phase C18 HPLC column; HPLC-MS, preparation examples; read-out: log P (neutral)
Protocol: 1) Description of Method for Determination of the Log P Values ([…]) The log P values given in the table were determined in accordance with EEC Directive 79/831 Annex V.A8 by HPLC (High Performance Liquid Chromatography) using a reversed-phase column (C 18). […] Calibration was effected with unbranched alkan-2-ones (having 3 to 16 carbon atoms) with known log P values (log P values determined on the basis of the retention times by linear interpolation between two successive alkanones). […]
READOUT: chromatographic logP

Consider the reported chromatographic logP for these compounds:
COMPOUND | chromatographic logP
O=C(Nc1ncn(-c2c(F)cccc2Br)n1)c1ccccc1 | 1.79
O=C(Nc1ncn(-c2c(F)cccc2F)n1)c1ccccc1Cl | 1.73
Nc1ncn(-c2c(F)cccc2C(F)(F)F)n1 | 1.09
Nc1ncn(-c2c(F)cccc2F)n1 | 0.61
CCc1ccccc1C(=O)Nc1ncn(-c2c(F)cccc2F)n1 | 2.05
O=C(Nc1ncn(-c2c(F)cccc2C(F)(F)F)n1)c1ccccc1I | 2.21

a. Nc1ncn(-c2c(F)cccc2Br)n1
b. O=C(Nc1ncn(-c2c(F)cccc2C(F)(F)F)n1)c1ccccc1
Exam item: I'm curious, which of these has a smaller chromatographic logP number: a or b ? Write the label of whichever entry you select.
Marked response: a

a. Nc1noc(-c2ccccc2)n1
b. CO/C(=N\C#N)c1ccccc1 [Methyl N-cyanobenzenecarboximidoate]
Exam item: I'm curious, which of these has a smaller chromatographic logP number: a or b ? Write the label of whichever entry you select.
Marked response: a

###

Tested on: Meloidogyne incognita
MEASUREMENT PROTOCOL: Meloidogyne incognita test (MELGIN)
Type: in vivo
EXPERIMENTAL CONTEXT: 20 ppm; lettuce; after 14 days
Experimental: Meloidogyne incognita Test (MELGIN) Solvent: 125.0 parts by weight of acetone To produce a suitable active ingredient formulation, 1 part by weight of active ingredient is mixed with the stated amount of solvent and the concentrate is diluted with water to the desired concentration. […] After 14 days, the nematicidal efficacy in % is determined by the formation of galls. […]
nematicidal efficacy (formation of galls) overview
Lab book: enter the figure in %, no units written.

COMPOUND | OBSERVED MEASUREMENT
O=C(Nc1ncn(-c2c(F)cccc2F)n1)c1ncccc1C(F)(F)F [Compound I-1-91] | 100

Exam item: I would be grateful if you could share the reported nematicidal efficacy (formation of galls) for O=C(Nc1ncn(-c2c(F)cccc2F)n1)c1ccccc1Cl [Compound I-1-13] .
Marked response: 100

Exam item: I would be grateful if you could share the reported nematicidal efficacy (formation of galls) for O=C(Nc1ncn(-c2c(F)cc(F)cc2F)n1)c1ccccc1I [Compound I-1-63] .
Marked response: 100

Exam item: I would be grateful if you could share the reported nematicidal efficacy (formation of galls) for O=C(Nc1ncn(-c2c(F)cccc2F)n1)c1nccnc1C(F)(F)F [Compound I-1-24] .
Marked response: 100

Exam item: I would be grateful if you could share the reported nematicidal efficacy (formation of galls) for O=C(Nc1ncn(-c2c(F)cccc2F)n1)c1ccccc1Br [Compound I-1-12] .
Marked response: 90

Exam item: I would be grateful if you could share the reported nematicidal efficacy (formation of galls) for O=C(Nc1ncn(-c2c(F)cccc2C(F)(F)F)n1)c1ccccc1I [Compound I-1-28] .
Marked response: 100

###

MEASUREMENT PROTOCOL: Determination of log P values by HPLC (reversed-phase C18)
Type: physicochemical
EXPERIMENTAL CONTEXT: compounds of formula (IIa-1), R3 hydrogen
Description: 1) Description of Method for Determination of the Log P Values ([…]) The log P values given in the table were determined in accordance with EEC Directive 79/831 Annex V.A8 by HPLC (High Performance Liquid Chromatography) using a reversed-phase column (C 18). […] Calibration was effected with unbranched alkan-2-ones (having 3 to 16 carbon atoms) with known log P values (log P values determined on the basis of the retention times by linear interpolation between two successive alkanones). […]
READOUT: logP (neutral)

MOLECULE | OBSERVED MEASUREMENT
Nc1ncn(-c2ccccc2OC(F)(F)F)n1 [IIa-1 R1=OCF3 R2m=—] | 1.44
Nc1ncn(-c2ccccc2Br)n1 [IIa-1 R1=Br R2m=—] | 1.03
CCc1cccc(Cl)c1-n1cnc(N)n1 [IIa-1 R1=Cl R2m=6-C2H5] | 1.12
Nc1ncn(-c2c(F)cccc2Cl)n1 [IIa-1 R1=Cl R2m=6-F] | 0.86

A. Nc1ncn(-c2c(F)c(F)c(F)c(F)c2F)n1 [IIa-1 R1=F R2m=3,4,5,6-F4]
B. Nc1ncn(-c2ccccc2F)n1 [IIa-1 R1=F R2m=—]
Exam item: Which of the two items, A and B , has the greater recorded logP (neutral)? Write the label of whichever entry you select.
Marked response: A

###

MEASUREMENT PROTOCOL: Determination of log P values by HPLC (reversed-phase C18)
Type: physicochemical
EXPERIMENTAL CONTEXT: reversed-phase C18 HPLC column; HPLC-MS, preparation examples; read-out: log P (neutral)
READOUT: chromatographic logP

STRUCTURE STRING | chromatographic logP
O=C(Nc1ncn(-c2c(F)cccc2Br)n1)c1ccccc1C(F)(F)F | 2.15

I. O=C(Nc1ncn(-c2c(F)cccc2F)n1)c1ccccc1
II. CCO/C=N/c1noc(-c2ccccc2)n1
Exam item: Which of the two items, I and II , has the greater recorded chromatographic logP? Write the label of whichever entry you select.
Marked response: II
